Run description: BSK_BT_PBMCCytotoxicity: PBMC Cytotoxicity Assessment in the BioMAP Diversity Plus: BT Assay (AID 2284225);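 further: PBMC viability measured by Alamar Blue dye reduction fluorescence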
Assay setup: primary human B cells with PBMC
Active and inactive are the calls of the source. How the source made its calls: active means hit-call score of the fitted dose curve at least 0.9, where 1 is the maximum; inactive means score below 0.9.
Log the outcome using a class from active, inactive

Worked examples follow.
Cc1cc(-n2nc3ccc(Cl)cc3n2)c(O)c(C(C)(C)C)c1 = inactive
CCCCCCCCCC/C=C/C1CC(=O)OC1=O (configuration not stated) = inactive
CCCCCCCCCCC1CO1 (configuration not stated) = inactive
CCCCCCCCCCCCCCCCCC[N+](C)(C)C = active
COC(=O)/C=C\C(=O)OC = inactive
CN(C)CCC(c1ccc(Cl)cc1)c1ccccn1 (configuration not stated) = inactive

Query: recorded result category for Cc1cccnc1 in this test
inactive
